# assay_name: NCI Yeast Anticancer Drug Screen. Data for the sgs1 mgt1 strain (AID 161);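 note: 0% = growth of cultures given vehicle only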
# measurement_context: S. cerevisiae sgs1 mgt1 strain, at 50.0 µM, stronger effect = higher value
The panel holds about 79,000 compounds, 15% with a hit somewhere; the sample as a whole holds those more often.
measure_name: growth inhibition (%)
// return numeric value only (unit: %, not printed)

# compound COC(=O)C1C(O)C(C(=O)OC)C(C)N(C)C1C (stereo not given) ; its growth inhibition = -41.5

# compound OC1c2ccccc2-c2ccccc21 ; its growth inhibition = -15.4

# compound CC1=C(CCC(C)CO)O[C@H]2C[C@H]3[C@@H]4CC[C@H]5C[C@@H](O)CC[C@]5(C)[C@H]4CC(=O)[C@]3(C)[C@@H]12 (stereo not given in full) ; its growth inhibition = 84

# compound c1ccc(CN2CCCNCC2)cc1 ; its growth inhibition = -0.25

# compound CC1OC(OC2C(OC3C[C@@]4(C)C(C[C@H](O)[C@H]5[C@H](C6(C)CCC(C(C)(C)O)O6)CCC54C)[C@]4(C)CC[C@@H](O)C(C)(C)C34)OC(CO)C(O)C2O)C(O)C(O)C1O (stereo not given in full) (tested in a mixture with another compound) ; its growth inhibition = -3.45

###

Record form. Attribute: growth inhibition. Fill in for each entry.
# assay_name: NCI Yeast Anticancer Drug Screen. Data for the rad50 strain (AID 155);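 note: 0% = growth of vehicle-only cultures of the same strain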
# measurement_context: S. cerevisiae rad50 strain growth inhibition; at 50.0 µM; stronger effect = higher value
Compounds without any hit were thinned out: in the full panel of roughly 79,000, 15% have a hit.
// return numeric value only (unit: %, not printed)

# compound CCCCCCCCC(O)C(O)CCCCCCCC(=O)OC (configuration not stated) ; its growth inhibition = -15.3

# compound Cc1c(C)c2cc3c(=O)c(CCl)coc3c(C)c2oc1=O ; its growth inhibition = 22.4

# compound CC(=O)NCC(=O)O ; its growth inhibition = 3.7

# compound CCc1ccc(C(O)C(=O)O)cc1 (configuration not stated) ; its growth inhibition = 4.6

# compound CSc1ccc(NC(=O)C(Cl)Cl)cc1 ; its growth inhibition = -3.35

# compound O=C1C=C(Nc2ccc(Cl)cc2Cl)c2ccccc2C1=O ; its growth inhibition = 30.2

# compound O=C(O)C(C(=O)O)C1CCCCCC1 ; its growth inhibition = -34.4

###

# assay_name: NCI Yeast Anticancer Drug Screen. Data for the sgs1 mgt1 strain (AID 161);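 note: 0% = growth of cultures given vehicle only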
# measurement_context: S. cerevisiae sgs1 mgt1 strain, at 50.0 µM, stronger effect = higher value
The panel holds about 79,000 compounds, 15% with a hit somewhere; the sample as a whole holds those more often.
Record form. Attribute: growth inhibition. Fill in for each entry.
// return numeric value only (unit: %, not printed)

# compound CN1C(=O)NC(=O)C1(C)C=O (stereo not drawn) ; its growth inhibition = -2.7

# compound Fc1ccccc1-c1ccccc1 ; its growth inhibition = -13.5

# compound NC1=NC=NCN1c1ccc(N)cc1 ; its growth inhibition = 3.85

# compound Cc1[nH]c2ccccc2c1C1=CC(=O)c2ccccc2C1=O ; its growth inhibition = 21.6

# compound COC1CCC2CC3(CCC2(C)C1O)OCCO3 (stereo not drawn) ; its growth inhibition = -1.45

# compound COc1cc(CCCO)ccc1O ; its growth inhibition = 0.25

# compound OC/C(I)=C(I)\C(I)=C(\I)CO ; its growth inhibition = 99.5

# compound CCOc1cc(/C=C2/C=C(c3ccc(OC)cc3)OC2=O)ccc1O ; its growth inhibition = 4.5

# compound CC#CC(O)(C(=O)OC1CCCN(C)C1)C1=CC=CCC1 (stereo not drawn) ; its growth inhibition = 13.2

# compound N#Cc1ccc(Sc2ccccc2)cc1C#N ; its growth inhibition = 24.4

# compound N#Cc1c2c(c(N3CCCCC3)n3c1nc1ccccc13)CCC2 ; its growth inhibition = 26.8

# compound COc1ccc2nc(C3CCCCC3C(=O)O)cc(C)c2c1 (stereo not drawn) ; its growth inhibition = -5.8

# compound Cc1ncc([N+](=O)[O-])n1Cc1nncs1 ; its growth inhibition = -7.95

The origin of these recorded values is PubChem BioAssay (NCI).
